All values here come from patent US20240109917A1.

# system tested: PDGFRβ (Rattus norvegicus (Rat), UniProt Q05030)
# Sequence (Q05030 32-1097): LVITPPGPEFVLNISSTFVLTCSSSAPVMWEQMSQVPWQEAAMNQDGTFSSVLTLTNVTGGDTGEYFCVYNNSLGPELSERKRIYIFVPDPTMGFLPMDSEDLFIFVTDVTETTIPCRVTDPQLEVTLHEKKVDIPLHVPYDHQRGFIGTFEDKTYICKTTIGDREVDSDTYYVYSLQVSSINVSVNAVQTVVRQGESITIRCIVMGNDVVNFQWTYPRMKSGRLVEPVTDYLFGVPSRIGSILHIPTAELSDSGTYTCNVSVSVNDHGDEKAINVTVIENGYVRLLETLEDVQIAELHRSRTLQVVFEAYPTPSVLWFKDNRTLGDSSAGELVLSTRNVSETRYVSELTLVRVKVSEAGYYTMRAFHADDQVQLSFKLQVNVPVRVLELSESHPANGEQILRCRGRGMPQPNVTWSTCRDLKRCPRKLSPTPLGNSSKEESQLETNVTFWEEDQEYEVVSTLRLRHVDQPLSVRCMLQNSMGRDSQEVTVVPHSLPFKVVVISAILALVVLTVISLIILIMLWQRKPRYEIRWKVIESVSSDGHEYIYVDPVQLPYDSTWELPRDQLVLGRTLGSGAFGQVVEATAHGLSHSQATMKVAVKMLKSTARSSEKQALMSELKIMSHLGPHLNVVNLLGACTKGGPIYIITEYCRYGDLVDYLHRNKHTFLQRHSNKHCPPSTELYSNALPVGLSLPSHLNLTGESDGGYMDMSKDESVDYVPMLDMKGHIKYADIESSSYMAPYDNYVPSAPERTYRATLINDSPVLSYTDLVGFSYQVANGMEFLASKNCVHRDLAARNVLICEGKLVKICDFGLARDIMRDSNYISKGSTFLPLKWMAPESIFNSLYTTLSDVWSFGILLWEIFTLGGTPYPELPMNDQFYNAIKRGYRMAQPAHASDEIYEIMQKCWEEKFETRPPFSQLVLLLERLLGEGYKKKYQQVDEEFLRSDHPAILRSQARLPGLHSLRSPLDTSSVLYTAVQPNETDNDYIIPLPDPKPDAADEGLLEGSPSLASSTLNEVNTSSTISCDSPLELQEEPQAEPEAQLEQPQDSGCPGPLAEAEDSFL
# experimental protocol: PDGFRβ Cellular Assay (PDGFRb P-Y751 HTRF in A10 cells stimulated with PDGF-BB)
# Format: cell-based
# condition set: read-out: PDGFR Cellular IC50
Entries are sorted into classes by IC50 as follows: class 1: < 0.01 µM; class 2: ≥ 0.01 µM and < 0.1 µM; class 3: ≥ 0.1 µM

As a guide, the following entries are already answered.
Cc1ncc(NC(=O)CN2CC(C)(C)C2)cc1NC(=O)c1cnn2cc(-c3cncnc3C)sc12: class 3
CC[C@@H]1COCCN1CC(=O)Nc1cnc(C)c(NC(=O)c2cnn3cc(-c4cnn(C)c4)sc23)c1: class 2
Cc1cc(C(=O)NCCN2CCCC23CCC3)sc1NC(=O)c1cnn2cc(-c3cnn(C)c3)sc12: class 2
Cc1ncc(NC(=O)CN2CCC3(COC3)C2)cc1NC(=O)c1cnn2cc(-c3cnn(C)c3)sc12: class 2
COCC1CCCN1CC(=O)Nc1cnc(C)c(NC(=O)c2cnn3cc(-c4cnn(C)c4)sc23)c1 (stereo not drawn): class 2

[in] # classify by IC50 band: Cc1ncc(NC(=O)C2CCCCN2C(C)C)cc1NC(=O)c1cnn2cc(-c3cccnc3O)sc12 (stereo not drawn)
[out] class 3

[in] # classify by IC50 band: Cc1ncc(NC(=O)CN2CCCCCC2)cc1NC(=O)c1cnn2cc(-c3cnn4c3OCCC4)sc12
[out] class 1

[in] # classify by IC50 band: COCCn1cc(-c2cn3ncc(C(=O)Nc4cc(NC(=O)CN5CCC(C6CC6)C5)cnc4C)c3s2)cn1 (stereo not drawn)
[out] class 1

[in] # classify by IC50 band: Cc1ncc(C(=O)NCCN2CCC3(CC3)C2)cc1NC(=O)c1cnn2cc(-c3cn(C)cn3)sc12
[out] class 3

[in] # classify by IC50 band: Cc1ncc(C(=O)NCCN2CCCC23COC3)cc1NC(=O)c1cnn2cc(-c3cn(C)nc3C)sc12
[out] class 2

[in] # classify by IC50 band: Cc1ncc(C(=O)NCCN2CC3CCC2CC3)cc1NC(=O)c1cnn2cc(-c3cnn4c3CCC4)sc12
[out] class 2

[in] # classify by IC50 band: Cc1ncc(NC(=O)CN2CCCC2(C)C)cc1NC(=O)c1cnn2cc(-c3cnn(CCO)c3)sc12
[out] class 2

[in] # classify by IC50 band: Cc1ncc(C(=O)NCCN2CCCC2(C)C)cc1NC(=O)c1cnn2cc(-c3cn(C)nc3CO)sc12
[out] class 3

[in] # classify by IC50 band: Cc1ncc(NC(=O)CC23CCCN2CCC3)cc1NC(=O)c1cnn2cc(-c3cnn(C)c3)sc12
[out] class 1
